tgt: T1, rhEphA5 antigen (Homo sapiens, UniProt P54756)
T1 construct: purchased R and D systems 3036-A5
measurement-description: kd (1/s)
assay-readout: kd (s⁻¹)
Could you give me the number in s⁻¹? Just the number is fine.

Entry VH5/VK5: humanized anti-EphA5 antibody, VH SEQ ID NO:6, VL SEQ ID NO:13 (antibody, V domains shown) VH: EVQLVESGGGLVQPGGSLKLSCAASGFTFSTFGIHWVRQAPGKGLEWVAYISGASTTIYYADSVKGRFTISRDNSKNTLYLQMNSLRAEDTAVYYCARYGTSFPYGLDYWGQGTLVTVSS VL: DIVMTQSPDSLAVSLGERATINCKSSQSVDYDGDSYMNWYQQKPGKAPKLLIYGASNLESGIPDRFSGSGSGTDFTLTISRLEPEDAAVYYCQQSNEDPFTFGQGTKLEIK , kd reported as 0.0014

Cited source: patent US12662541B2
